PROTOCOL_NOTES: Toxicity in sea urchin embryo assessed as inhibition of embryo development before morula stage after 24 hrs by microscopy
EXPERIMENTAL_SETUP: hemicentrotus pulcherrimus
PROPERTY_MEASURED: LD99 (µg/mL)
Report the figure in µg/mL without appending any unit label.

Qu. Note LD99 for the compound shown: CC(C)CC(=O)C[C@@](C)(O)[C@H]1CC[C@H]2[C@@H]3C[C@H](O[C@@H]4O[C@H](C)C(=O)[C@H](OC5O[C@H](C)[C@@H](OC6O[C@H](C)[C@H](O)[C@H](O)[C@H]6OC6O[C@H](C)[C@H](O)[C@H](O)[C@H]6O)[C@H](O)[C@H]5OC5O[C@H](C)[C@@H](O)[C@H](O)[C@H]5O)[C@H]4O)[C@H]4C[C@@H](OS(=O)(=O)[O-])CC[C@]4(C)C3=CC[C@@]21C.[Na+] (stereo partly drawn)
Ans. 5

Qu. Note LD99 for the compound shown: CC(C)CC(=O)C[C@@](C)(O)[C@H]1CC[C@H]2[C@@H]3C[C@H](OC4O[C@H](C)[C@@H](O)[C@H](OC5OC[C@@H](OC6O[C@H](C)[C@@H](O)[C@H](O)[C@H]6OC6O[C@H](C)[C@H](O)[C@H](OC7O[C@H](C)[C@H](O)[C@H](O)[C@H]7O)[C@H]6O)[C@H](O)[C@H]5OC5O[C@H](C)[C@@H](O)[C@H](O)[C@H]5O)[C@H]4O)[C@H]4C[C@@H](O)CC[C@]4(C)C3=CC[C@@]21C (stereo partly drawn)
Ans. 10

Qu. Note LD99 for the compound shown: CC(C)C(C)C(=O)C[C@@](C)(O)[C@H]1CC[C@H]2[C@@H]3C[C@H](OC4O[C@H](C)[C@@H](O)[C@H](OC5OC[C@@H](OC6O[C@H](CO)[C@H](O)[C@H](O)[C@H]6OC6O[C@H](C)[C@H](O)[C@H](O)[C@H]6O)[C@H](O)[C@H]5OC5O[C@H](C)[C@@H](O)[C@H](O)[C@H]5O)[C@H]4O)[C@H]4C[C@@H](OS(=O)(=O)[O-])CC[C@]4(C)C3=CC[C@@]21C.[Na+] (stereo partly drawn)
Ans. 2
